# Assay remarks: yeast display, Sf9 membrane polyspecificity reagent, FACS + sequencing; frameworks hold sequencing errors
Assay metric: polyreactivity (PSR sort gate)

A selection of reference data follows.
Sequence entry	Result
QLQLVESGGGLVQAGASLRLSCAASGFIFKYNAMGWYRQAPCKERELVSAISRGTSTYYADSVKGRFTISRDNAKNTVYLQLNSLKPEDTAVYYCEATGRRPGQKYMGYDYWGQGTQVTVSS	high polyreactivity
QVQLVESGGGLVQAGGSLRLSCAASGSTFRFYAMGWYRQAPGKERELVAAISKSGGITYYADSVKGRFTISRDNAKNTVYLQMNSLKPEDTAVYSCATVGLLSNFYARFNYWGQGTQVTVSS	high polyreactivity
QVQLVESGGGLVQAGGSLRLSCAASGSTLAGYAMGWYRQAPGKERELVATISWSDGSTSYADSVKGRFTFSRDNAKNTVYLQLNSLKPEDTAVSYCAADAITNYDGRKSRRSYSAYDYWGQGTQVTVSS	low polyreactivity
QVQLVESGGGLVQAGGSLLLSCAASGSTFSYYGMGWYRQAPVKERELVAAIDYSGDSTYYADSVKGRFTISRDNSKNTVFLQMNSLKPEDTAVYYCAADDYPWNRYEYWGQGTQVTVSS	low polyreactivity
QVQLVESGGGLVQAGGSLRLSCAASGFTFSAYDMGWYRQAPGKERELVAAISYSGGSTYYADSVKGRFTISRDTAKNTVYLQMNSLKPEDTAVYYCAADGYYTDYWGQGTQVTVSS	high polyreactivity

Please turn your attention to the following entry.
For this sequence ( `QVQLVESGGGLVQAGGSLRLICAASGRTSYTYVMGWYRQAPGKERELVAAIRLSGGNTYYADSVKGRFTISRDNAKNTVYLQMNSLKPEDTAVYYCAAQYWRHRKAYGYWGQGSQVTVSS` ), measured polyreactivity (PSR sort gate) is high polyreactivity
